conditions: 288.15 K; 100 kPa; Liquid
Reported mass density values are given for each entry in this list.
Respond with the bare value in kg/m3.

Compound | Reported value
CCCCCCCl | 882.7
CC(=O)N(C)C [N,N-dimethylethanamide] | 945.7
CCCCCCCCCl | 877.3

Which mass density reading was recorded for the compound CCCCCl ?
891.8

Which mass density reading was recorded for the compound CN(C)C=O [dimethylformamide] ?
953.4

###

settings: 308.15 K; 20200 kPa; Liquid
Reported mass density values are given for each entry in this list.
Respond with the bare value in kg/m3.

Recorded mass density, per entry:
Compound | mass density, kg/m3
CC(=O)N(C)C [N,N-dimethylethanamide] | 939.9
CN(C)C=O [dimethylformamide] | 947
CCCCCCCl [1-chlorohexane] | 881.5

// next entry
Which mass density reading was recorded for the compound CCCCCl [1-chlorobutane] ?
890.6

###

details: 298.15 K; 8100 kPa; Liquid
Reported mass density values are given for each entry in this list.
Respond with the bare value in kg/m3.

Recorded mass density, per entry:
Compound | mass density (kg/m3)
CC(=O)N(C)C [N,N-dimethylethanamide] | 941.8
CN(C)C=O [dimethylformamide] | 948.6
CCCCCl | 888.7
CCCCCCCl | 879.9

// next entry
Which mass density reading was recorded for the compound CCCCCCCCCl ?
874.8

###

details: 308.15 K; 8100 kPa; Liquid
Reported mass density values are given for each entry in this list.
Respond with the bare value in kg/m3.

Recorded mass density, per entry:
Compound | Reported value
CCCCCl [1-chlorobutane] | 878.6
CC(=O)N(C)C [N,N-dimethylethanamide] | 932.8
CN(C)C=O [dimethylformamide] | 940

Which mass density reading was recorded for the compound CCCCCCCl [1-chlorohexane] ?
871.5

###

conditions: 318.15 K; 2000 kPa; Liquid
Assay metric: mass density (kg/m3)
Respond with the bare value in kg/m3.

Compound | mass density (kg/m3)
CCCCCl | 861.5

Which mass density reading was recorded for the compound CCCCCCCCCl ?
854.5

Which mass density reading was recorded for the compound CCCCCCCl ?
857

Which mass density reading was recorded for the compound CC(=O)N(C)C [N,N-dimethylethanamide] ?
919.8

###

conditions: 308.15 K; 4100 kPa; Liquid
Assay metric: mass density (kg/m3)
Respond with the bare value in kg/m3.

Compound | mass density, kg/m3
CCCCCCCl [1-chlorohexane] | 868

Which mass density reading was recorded for the compound CCCCCl [1-chlorobutane] ?
874.4

Which mass density reading was recorded for the compound CN(C)C=O [dimethylformamide] ?
937.6

Which mass density reading was recorded for the compound CC(=O)N(C)C [N,N-dimethylethanamide] ?
930.4

###

settings: 298.15 K; 2000 kPa; Liquid
Assay metric: mass density (kg/m3)
Respond with the bare value in kg/m3.

Which mass density reading was recorded for the compound CCCCCCCCCl ?
870.2

###

conditions: 318.15 K; 100 kPa; Liquid
Assay metric: mass density (kg/m3)
Respond with the bare value in kg/m3.

Molecule | mass density [kg/m3]
CCCCCl | 859.1
CCCCCCCCCl | 852.9
CN(C)C=O [dimethylformamide] | 925.5
CC(=O)N(C)C [N,N-dimethylethanamide] | 918.7

// next entry
Which mass density reading was recorded for the molecule CCCCCCCl ?
855.1

###

conditions: 298.15 K; 4100 kPa; Liquid
Assay metric: mass density (kg/m3)
Respond with the bare value in kg/m3.

Which mass density reading was recorded for the compound CCCCCCCl ?
876.6

Which mass density reading was recorded for the compound CC(=O)N(C)C [N,N-dimethylethanamide] ?
939.4

Which mass density reading was recorded for the compound CN(C)C=O [dimethylformamide] ?
946.2

Which mass density reading was recorded for the compound CCCCCl ?
884.9

Which mass density reading was recorded for the compound CCCCCCCCCl ?
871.8
